Assay: Pharmacokinetics after repeated oral administration of 35 μg/kg of fluralaner in dogs after feeding
Assay type: in vivo, beagle dogs
Conditions: beagle, dog, plasma, po, 35 μg/kg, 576 h; oral 35 μg/kg Days 0-3, dogs; read-out: fluralaner concentration levels, individual animal
OBSERVABLE: concentration at 576 h (ng/mL)
Numbers only, in ng/mL.

Challenge: Form field: reported concentration at 576 h of Cc1cc(C2=NOC(c3cc(Cl)cc(Cl)c3)(C(F)(F)F)C2)ccc1C(=O)NCC(=O)NCC(F)(F)F (stereo not shown)
Response given: 17.3

----------
Assay: Pharmacokinetics after repeated oral administration of 35 μg/kg of fluralaner in dogs after feeding
Type: in vivo, beagle dogs
Details: beagle, dog, plasma, po, 35 μg/kg, 480 h; oral 35 μg/kg Days 0-3, dogs, n=6; read-out: fluralaner concentration levels, GeoMean
OBSERVABLE: concentration at 480 h (ng/mL)
One number for each entry, in ng/mL.

Challenge: Form field: reported concentration at 480 h of Cc1cc(C2=NOC(c3cc(Cl)cc(Cl)c3)(C(F)(F)F)C2)ccc1C(=O)NCC(=O)NCC(F)(F)F (stereo not shown)
Response given: 22.1

----------
Assay: Pharmacokinetics after repeated oral administration of 250 μg/kg and 35 μg/kg of fluralaner in dogs after feeding
Assay type: in vivo, beagle dogs
Settings: beagle, dog, plasma, po, 96 h; oral 250/35/600 μg/kg regimen, dogs, n=6; read-out: fluralaner concentration levels, Minimum
OBSERVABLE: concentration at 96 h (ng/mL)
Give bare numbers, in ng/mL.

Challenge: Form field: reported concentration at 96 h of Cc1cc(C2=NOC(c3cc(Cl)cc(Cl)c3)(C(F)(F)F)C2)ccc1C(=O)NCC(=O)NCC(F)(F)F (stereo not shown)
Response given: 471

----------
Assay: Pharmacokinetics after repeated oral administration of 250 μg/kg and 35 μg/kg of fluralaner in dogs after feeding
Format: in vivo, beagle dogs
Conditions: beagle, dog, plasma, po, 624 h; oral 250/35/600 μg/kg regimen, dogs, n=6; read-out: fluralaner concentration levels, GeoMean
OBSERVABLE: concentration at 624 h (ng/mL)
Give bare numbers, in ng/mL.

Challenge: Form field: reported concentration at 624 h of Cc1cc(C2=NOC(c3cc(Cl)cc(Cl)c3)(C(F)(F)F)C2)ccc1C(=O)NCC(=O)NCC(F)(F)F (stereo not shown)
Response given: 254

----------
Experiment: Pharmacokinetics after repeated oral administration of 250 μg/kg and 35 μg/kg of fluralaner in dogs after feeding
Type: in vivo, beagle dogs
Settings: beagle, dog, plasma, po, 624 h; oral 250/35/600 μg/kg regimen, dogs, n=6; read-out: fluralaner concentration levels, Maximum
OBSERVABLE: concentration at 624 h (ng/mL)
One number for each entry, in ng/mL.

Challenge: Form field: reported concentration at 624 h of Cc1cc(C2=NOC(c3cc(Cl)cc(Cl)c3)(C(F)(F)F)C2)ccc1C(=O)NCC(=O)NCC(F)(F)F (stereo not shown)
Response given: 403

----------
Assay: Pharmacokinetics after repeated oral administration of 250 μg/kg and 35 μg/kg of fluralaner in dogs after feeding
Format: in vivo, beagle dogs
Conditions: beagle, dog, plasma, po, 96 h; oral 250/35/600 μg/kg regimen, dogs, n=6; read-out: fluralaner concentration levels, Median
OBSERVABLE: concentration at 96 h (ng/mL)
One number for each entry, in ng/mL.

Challenge: Form field: reported concentration at 96 h of Cc1cc(C2=NOC(c3cc(Cl)cc(Cl)c3)(C(F)(F)F)C2)ccc1C(=O)NCC(=O)NCC(F)(F)F (stereo not shown)
Response given: 506

----------
Assay: Pharmacokinetics after repeated oral administration of 250 μg/kg and 35 μg/kg of fluralaner in dogs after feeding
Format: in vivo, beagle dogs
Conditions: beagle, dog, plasma, po, 96 h; oral 250/35/600 μg/kg regimen, dogs, n=6; read-out: fluralaner concentration levels, GeoMean
OBSERVABLE: concentration at 96 h (ng/mL)
Answers are plain numbers, in ng/mL.

Challenge: Form field: reported concentration at 96 h of Cc1cc(C2=NOC(c3cc(Cl)cc(Cl)c3)(C(F)(F)F)C2)ccc1C(=O)NCC(=O)NCC(F)(F)F (stereo not shown)
Response given: 524

----------
Assay: Pharmacokinetics after repeated oral administration of 35 μg/kg of fluralaner in dogs after feeding
Assay type: in vivo, beagle dogs
Settings: beagle, dog, plasma, po, 35 ug/kg, oral 35 μg/kg Days 0-3, dogs, n=6; read-out: t½, GeoMean (converted)
OBSERVABLE: half-life (h)
Numbers only, in h.

Challenge: Form field: reported half-life of Cc1cc(C2=NOC(c3cc(Cl)cc(Cl)c3)(C(F)(F)F)C2)ccc1C(=O)NCC(=O)NCC(F)(F)F (stereo not shown)
Response given: 214

----------
Test: Pharmacokinetics after repeated oral administration of 250 μg/kg and 35 μg/kg of fluralaner in dogs after feeding
Type: in vivo, beagle dogs
Conditions: beagle, dog, plasma, po, 120 h; oral 250/35/600 μg/kg regimen, dogs, n=6; read-out: fluralaner concentration levels, Maximum
OBSERVABLE: concentration at 120 h (ng/mL)
One number for each entry, in ng/mL.

Challenge: Form field: reported concentration at 120 h of Cc1cc(C2=NOC(c3cc(Cl)cc(Cl)c3)(C(F)(F)F)C2)ccc1C(=O)NCC(=O)NCC(F)(F)F (stereo not shown) [fluralaner, Fluralaner]
Response given: 554

----------
Assay: Pharmacokinetics after repeated oral administration of 35 μg/kg of fluralaner in dogs after feeding
Assay type: in vivo, beagle dogs
Conditions: beagle, dog, plasma, po, 35 μg/kg, 120 h; oral 35 μg/kg Days 0-3, dogs; read-out: fluralaner concentration levels, individual animal
OBSERVABLE: concentration at 120 h (ng/mL)
Give bare numbers, in ng/mL.

Challenge: Form field: reported concentration at 120 h of Cc1cc(C2=NOC(c3cc(Cl)cc(Cl)c3)(C(F)(F)F)C2)ccc1C(=O)NCC(=O)NCC(F)(F)F (stereo not shown)
Response given: 72.3

----------
Assay: Pharmacokinetics after repeated oral administration of 250 μg/kg and 35 μg/kg of fluralaner in dogs after feeding
Format: in vivo, beagle dogs
Settings: beagle, dog, plasma, po, 384 h; oral 250/35/600 μg/kg regimen, dogs, n=6; read-out: fluralaner concentration levels, Minimum
Protocol: The first objective is to obtain the pharmacokinetic parameters after repeated oral administration of […] and 35 μg/kg of fluralaner in dogs after feeding. […] On Days 0, 1, 2 and 3, all dogs assigned to group 2 received the Investigational Veterinary Product. […] The quantity of Investigational Veterinary Product and control product administered was calculated according to the dog's individual body weight measured on Day −1. […] Cmax the observed maximum concentration in plasma measured after dosing. […]
OBSERVABLE: concentration at 384 h

Challenge: Form field: reported concentration at 384 h of Cc1cc(C2=NOC(c3cc(Cl)cc(Cl)c3)(C(F)(F)F)C2)ccc1C(=O)NCC(=O)NCC(F)(F)F (stereo not shown)
Response given: 523 ng/mL

----------
Assay: Pharmacokinetics after repeated oral administration of 250 μg/kg and 35 μg/kg of fluralaner in dogs after feeding
Type: in vivo, beagle dogs
Settings: beagle, dog, plasma, po, 720 h; oral 250/35/600 μg/kg regimen, dogs, n=6; read-out: fluralaner concentration levels, Mean
OBSERVABLE: concentration at 720 h (ng/mL)
Give bare numbers, in ng/mL.

Challenge: Form field: reported concentration at 720 h of Cc1cc(C2=NOC(c3cc(Cl)cc(Cl)c3)(C(F)(F)F)C2)ccc1C(=O)NCC(=O)NCC(F)(F)F (stereo not shown) [fluralaner, Fluralaner]
Response given: 265

----------
Assay: Pharmacokinetics after repeated oral administration of 35 μg/kg of fluralaner in dogs after feeding
Assay type: in vivo, beagle dogs
Settings: beagle, dog, plasma, po, 35 ug/kg, oral 35 μg/kg Days 0-3, dogs, n=6; read-out: t½, Median (converted)
OBSERVABLE: half-life (days)
Give bare numbers, in days.

Challenge: Form field: reported half-life of Cc1cc(C2=NOC(c3cc(Cl)cc(Cl)c3)(C(F)(F)F)C2)ccc1C(=O)NCC(=O)NCC(F)(F)F (stereo not shown)
Response given: 9.73

----------
Test: Pharmacokinetics after repeated oral administration of 250 μg/kg and 35 μg/kg of fluralaner in dogs after feeding
Assay type: in vivo, beagle dogs
Details: beagle, dog, plasma, po, 24 h; oral 250/35/600 μg/kg regimen, dogs, n=6; read-out: fluralaner concentration levels, Median
OBSERVABLE: concentration at 24 h (ng/mL)
Answers are plain numbers, in ng/mL.

Challenge: Form field: reported concentration at 24 h of Cc1cc(C2=NOC(c3cc(Cl)cc(Cl)c3)(C(F)(F)F)C2)ccc1C(=O)NCC(=O)NCC(F)(F)F (stereo not shown)
Response given: 146

The origin of these recorded values is patent US12714696B2.
